# Test system: MDA-MB-468 breast
# assay_overview: NCI-60 one-dose screen, 48 h (100 = growth as untreated, 0 = no growth, -100 = all killed)
# condition_summary: 10 µM unless noted
Compounds without any hit were thinned out: in the full panel of roughly 83,000, 20% have a hit. Activity calls are given as the source filed them. Rule for the calls: active = growth percent below 10; inactive = the rest.
Below, each of the molecules is paired with its reported growth value.

Answered cases to consult:
- molecule: "COc1cc(-c2cc(/C=C3\\C(=O)Nc4cc(Cl)ccc43)[nH]n2)cc(OC)c1OC"
  value_type: "growth"
  result: "58.3% (inactive)"
- molecule: "O=c1cc(/C(=C2/C=CC=N2)c2ccc[nH]2)c2cc(Cl)ccc2o1"
  value_type: "growth"
  result: "2.6% (active)"
- molecule: "O=C(NCO)c1ccccc1"
  value_type: "growth"
  result: "110% (inactive)"
- molecule: "O=C(NCCNc1cc(-c2cn(-c3ccccc3)nc2-c2cccc(O)c2)ccn1)Nc1ccccc1"
  value_type: "growth"
  result: "64.9% (inactive)"
- molecule: "Cc1cccc2nnc(-c3ccccc3)n12"
  value_type: "growth"
  result: "106% (inactive)"
- molecule: "O=C(CN1C(=O)S/C(=C\\C(Cl)=C\\c2ccccc2)C1=O)NC1C=CS(=O)(=O)C1 (configuration not stated)"
  value_type: "growth"
  result: "-54.5% (active)"

// switching to the query molecule
Any idea what growth was measured for "NNc1c2ccccc2nc2ccccc12" ? 16.4% (inactive)

###

# Tested on: MDA-MB-468 breast
# assay_overview: NCI-60 one-dose screen, 48 h
# condition_summary: 10 µM unless noted
Compounds without any hit were thinned out: in the full panel of roughly 83,000, 20% have a hit. Active and inactive are the calls of the source. How the source made its calls: active means growth percent below 10; inactive means the rest.
Your answer must be one of the following: active, inactive

Previously resolved entries follow.
- smiles_text: "COc1cc(C(=O)NNC(=O)c2ccc(NC(=O)CCl)cc2)cc(OC)c1OC"
  target_system: "MDA-MB-468 breast"
  group_label: "inactive"
- smiles_text: "C/C=C\\COc1cc(C)c(Cl)cc1Cl"
  target_system: "MDA-MB-468 breast"
  group_label: "inactive"
- smiles_text: "COc1ccc(-c2cn(-c3cccc(C(=O)/C=C/c4cc(OC)c(OC)c(OC)c4)c3)c(=O)[nH]2)cc1OC"
  target_system: "MDA-MB-468 breast"
  group_label: "inactive"
- smiles_text: "O=C1C(N2CCOCC2)=C(I)C(=O)c2ncccc21"
  target_system: "MDA-MB-468 breast"
  group_label: "inactive"
- smiles_text: "COc1cc(OC)cc(-c2cc(-c3c[nH]c4ccccc34)nc(-c3c[nH]c4ccccc34)c2C#N)c1"
  target_system: "MDA-MB-468 breast"
  group_label: "inactive"
- smiles_text: "O=C(/C(=C/c1cccc([N+](=O)[O-])c1)c1ccccc1)c1ccccc1"
  target_system: "MDA-MB-468 breast"
  group_label: "inactive"
- smiles_text: "NCCCNc1nc2ccccc2c2c(=O)c3cccc(Cl)c3sc12"
  target_system: "MDA-MB-468 breast"
  group_label: "active"
- smiles_text: "COc1ccccc1N1CCN(C2=CC(=O)C(C)=C(C)C2=O)CC1"
  target_system: "MDA-MB-468 breast"
  group_label: "inactive"

Status in this test for "C=CC(=O)Nc1cccc(Nc2nc(Nc3ccc(N4CCN(C(C)=O)CC4)cc3OC)ncc2C(F)(F)F)c1" ? active

Status in this test for "O=C(Nc1ccc(Br)cc1)C1=NCCCCN1" ? inactive

Status in this test for "COc1ccc(Oc2ccc(/C=N/NC(=O)CSc3nc4ccccc4c(=O)n3-c3ccc(Cl)cc3)cc2)cc1" ? inactive

Status in this test for "CN1CCN(c2ccc(C(=O)/C=C/c3ccc(Cl)c(C(F)(F)F)c3)cc2)CC1" ? inactive

Status in this test for "Cc1nc2cnc(N)c(C#Cc3cncc(C(=O)Nc4ccc(Cl)c(C(F)(F)F)c4)c3)c2nc1C" ? inactive

Where do the numbers come from? From PubChem BioAssay (NCI).
